As shown below, each of these variants has a reported protein stability index value.
B1: CDC25A (parent)
chain: TVAGKHQDLKYISPEIMASVLNGK

# Variants of: B1
# PROCEDURE SUMMARY: protein stability index of a GFP-peptide fusion (GPS, HEK-293T) (PSI 1-6); higher = more stable;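 also: lentivirally expressed fusions sorted by FACS into six bins by GFP to DsRed ratio, PSI derived from sequencing read proportions per bin multiplied by bin number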
# MEASUREMENT PARAMETERS: c terminus: a fixed tail appended

Past entries and their recorded results:
M17G = 3.88
K10Q = 2.85
V2R = 3.21
E15R = 2.64
S19R = 3.29
K5M = 3.01

Please turn your attention to the following entry.
Consider "H6P" . Its measured protein stability index is 3.38
